Values were extracted from ChEMBL document CHEMBL5244260.

Target or system: Dual specificity protein phosphatase 3 (Homo sapiens, UniProt P51452)
Sequence (P51452 whole entry): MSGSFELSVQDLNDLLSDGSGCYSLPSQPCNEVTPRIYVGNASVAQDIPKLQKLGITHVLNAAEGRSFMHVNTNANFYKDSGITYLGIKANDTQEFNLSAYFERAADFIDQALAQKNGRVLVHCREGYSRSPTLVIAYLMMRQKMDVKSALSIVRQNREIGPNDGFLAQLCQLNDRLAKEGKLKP
Procedure text: Inhibition of human recombinant VHR expressed in Escherichia coli BL21 (DE3) assessed as inhibition constant using pNPP as substrate by stopped-flow spectrophotometer
Outcome measure: Ki (mM)
Give the quantity in mM, number only.

Ask: Output Ki of "O=C(CCc1ccc(C(F)(F)P(=O)(O)O)cc1)Nc1cc(NC(=O)CCc2ccc(C(F)(F)P(=O)(O)O)cc2)cc(C(=O)NCCc2ccc(C(=O)O)cc2)c1"
Result: 3.6

###

Target or system: Aldo-keto reductase family 1 member B1 (Rattus norvegicus, UniProt P07943)
Procedure text: Inhibition of Aldose reductase in rat lens using D,L-glyceraldehyde as substrate in presence of NADPH by spectrophotometric assay
Type: tissue-based
Outcome measure: IC50 (µM)
Give the quantity in µM, number only.

Ask: Output IC50 of "CC(C)NC(=O)NS(=O)(=O)c1ccc(-n2nc(-c3ccc(F)cc3)ccc2=O)cc1"
Result: 45

###

Target or system: Tyrosine-protein phosphatase non-receptor type 1 (Homo sapiens, UniProt P18031)
Sequence (P18031 whole entry, the tested form may be a part): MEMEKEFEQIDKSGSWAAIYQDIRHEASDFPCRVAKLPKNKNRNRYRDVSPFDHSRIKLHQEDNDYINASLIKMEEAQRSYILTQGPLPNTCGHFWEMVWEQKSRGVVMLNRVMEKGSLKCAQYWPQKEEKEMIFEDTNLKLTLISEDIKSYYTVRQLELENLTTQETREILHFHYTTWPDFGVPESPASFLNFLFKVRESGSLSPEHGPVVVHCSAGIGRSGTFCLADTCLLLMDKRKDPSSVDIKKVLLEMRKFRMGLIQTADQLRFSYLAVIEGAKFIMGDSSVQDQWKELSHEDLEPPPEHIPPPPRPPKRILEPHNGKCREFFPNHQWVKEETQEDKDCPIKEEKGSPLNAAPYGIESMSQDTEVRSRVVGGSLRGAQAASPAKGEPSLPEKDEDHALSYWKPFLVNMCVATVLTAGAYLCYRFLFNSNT
Procedure text: Inhibition of human recombinant PTP1B expressed in Escherichia coli BL21 (DE3) using pNPP as substrate by high-throughput screening assay
Outcome measure: IC50 (nM)
Give the quantity in nM, number only.

Ask: Output IC50 of "Cc1cc(/C=C2/S/C(=N/c3ccc(Cl)cc3)NC2=O)c(C)n1-c1cc(C(=O)O)cc(C(=O)O)c1"
Result: 1600

###

Target or system: Tyrosine-protein phosphatase non-receptor type 1 (Homo sapiens, UniProt P18031)
Procedure text: Inhibition of human recombinant GST-tagged PTP1B (1 to 321 residues) expressed in Escherichia coli using pNPP as substrate preincubated for 10 mins followed by substrate addition and measured after 30 mins by microplate reader assay
Outcome measure: pIC50
// scale note: pIC50 = -log10(conc_M); give the bare number

Ask: Output pIC50 of "CC(=O)c1cc2cc(-c3cccc(Cl)c3)oc2cc1O"
Result: 4.75

###

Target or system: Prostaglandin G/H synthase 2 (Homo sapiens, UniProt P35354)
Sequence (P35354 whole entry): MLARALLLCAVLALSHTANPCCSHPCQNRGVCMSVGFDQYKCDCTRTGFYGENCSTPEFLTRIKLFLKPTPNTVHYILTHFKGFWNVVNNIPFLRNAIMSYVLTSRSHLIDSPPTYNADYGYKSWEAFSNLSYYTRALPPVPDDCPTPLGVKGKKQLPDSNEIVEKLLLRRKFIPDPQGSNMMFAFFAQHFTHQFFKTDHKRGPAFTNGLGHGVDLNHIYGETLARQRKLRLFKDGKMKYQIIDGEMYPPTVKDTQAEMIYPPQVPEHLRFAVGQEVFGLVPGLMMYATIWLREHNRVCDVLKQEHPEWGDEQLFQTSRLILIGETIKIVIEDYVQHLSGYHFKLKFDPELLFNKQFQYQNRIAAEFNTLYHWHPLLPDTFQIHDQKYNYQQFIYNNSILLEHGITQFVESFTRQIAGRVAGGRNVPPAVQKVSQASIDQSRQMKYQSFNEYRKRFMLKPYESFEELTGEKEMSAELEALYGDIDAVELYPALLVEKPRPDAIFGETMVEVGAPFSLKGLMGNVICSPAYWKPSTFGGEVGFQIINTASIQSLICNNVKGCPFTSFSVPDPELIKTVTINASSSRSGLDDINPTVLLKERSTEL
Outcome measure: pIC50
// scale note: pIC50 = -log10(conc_M); give the bare number

Ask: Output pIC50 of "CC(=O)c1cc2cc(-c3cccc(Cl)c3)oc2cc1O"
Result: 5.55
